# Tested on: erythrocyte
# Assay type: cell-based
# condition.notes: 35 μM; 37° C., 1 h
test.readout: Haemolytic assay (%)

- CCCCCCCCCCCCCCCC[P+](CCCC)(CCCC)CCCC: 4
- CCCC[N+](CCCC)(CCCC)CCCCCCCCCCCC[N+](CCCC)(CCCC)CCCC: 0
- CCCCCCCCCCCCCCCC[N+](CCCC)(CCCC)CCCC: 4
- CCCC[P+](CCCC)(CCCC)CCCCCCCCCCCC[P+](CCCC)(CCCC)CCCC [Compound 1]: 0

* * *

# Test system: erythrocyte
# Type: cell-based
# condition.notes: 3.5 μM; 37° C., 1 h
test.readout: Haemolytic assay (%)

• CCCCCCCCCCCCCCCC[N+](CCCC)(CCCC)CCCC = 2.5
• CCCC[P+](CCCC)(CCCC)CCCCCCCCCCCC[P+](CCCC)(CCCC)CCCC = 0
• CCCCCCCCCCCCCCCC[P+](CCCC)(CCCC)CCCC = 2.5
• CCCC[N+](CCCC)(CCCC)CCCCCCCCCCCC[N+](CCCC)(CCCC)CCCC = 0
